Cited source: paper PMC11005391

target: Q9I291; assay: SEC; Superdex 200 10/300 GL, 50 mM Tris-HCl pH 8.0, 300 mM NaCl, 10 mM MgCl2; oligomeric state calculated from elution volumes of proteins of known size; addition of UTP, Glc-1-P or UDP-Glc did not affect the oligomerization of the WT
Answer each item with its documented N of the monomer peak (minor peak).
// keep it numeric: no unit symbol after the value

Query block: What does the record list as N of the monomer peak (minor peak) for PaUGP N266D (enzyme, UDP-glucose pyrophosphorylase of Pseudomonas aeruginosa (galU), residues 1-279, point mutant of Strep-PaUGP; Same construct as m1; source: E. coli BL21(DE3), purified (Strep-Tactin Sepharose); not shown: Strep-tagII, N-terminal, kept) MIKKCLFPAAGYGTRFLPATKAMPKEMLPVVNKPLIQYAVEEALEAGLSEIGIVTGRGKRSLEDHFDISYELEHQIRNTDKEKYLVGIRRLIDECTFAYTRQVEMKGLGHAILTGRPLIGDEPFAVVLADDLCLNLEGDSVLKQMVKLYNQFRCSIVAIQEVPPEETNKYGVIAGEMIRDDIFRVNTMVEKPKPEEAPSNLAIIGRYILTPDIFDLIEQTEPGKGGEIQITDALMKQAQDGCVLAYKFKGKRFDCGSAEGYIEATDFCYENLYKTGKAH ?
Result block: 1.2

Query block: Next: PaUGP E63D (enzyme, UDP-glucose pyrophosphorylase of Pseudomonas aeruginosa (galU), residues 1-279, point mutant of Strep-PaUGP; Same construct as m1; source: E. coli BL21(DE3), purified (Strep-Tactin Sepharose); not shown: Strep-tagII, N-terminal, kept) MIKKCLFPAAGYGTRFLPATKAMPKEMLPVVNKPLIQYAVEEALEAGLSEIGIVTGRGKRSLDDHFDISYELEHQIRNTDKEKYLVGIRRLIDECTFAYTRQVEMKGLGHAILTGRPLIGDEPFAVVLADDLCLNLEGDSVLKQMVKLYNQFRCSIVAIQEVPPEETNKYGVIAGEMIRDDIFRVNTMVEKPKPEEAPSNLAIIGRYILTPDIFDLIEQTEPGKGGEIQITDALMKQAQDGCVLAYKFKGKRFDCGSAEGYIEATNFCYENLYKTGKAH
Result block: 1.3

Query block: Same question for PaUGP N32D (enzyme, UDP-glucose pyrophosphorylase of Pseudomonas aeruginosa (galU), residues 1-279, point mutant of Strep-PaUGP; Same construct as m1; source: E. coli BL21(DE3), purified (Strep-Tactin Sepharose); not shown: Strep-tagII, N-terminal, kept) MIKKCLFPAAGYGTRFLPATKAMPKEMLPVVDKPLIQYAVEEALEAGLSEIGIVTGRGKRSLEDHFDISYELEHQIRNTDKEKYLVGIRRLIDECTFAYTRQVEMKGLGHAILTGRPLIGDEPFAVVLADDLCLNLEGDSVLKQMVKLYNQFRCSIVAIQEVPPEETNKYGVIAGEMIRDDIFRVNTMVEKPKPEEAPSNLAIIGRYILTPDIFDLIEQTEPGKGGEIQITDALMKQAQDGCVLAYKFKGKRFDCGSAEGYIEATNFCYENLYKTGKAH please.
Result block: 1.4

Query block: // query: PaUGP H74F (enzyme, UDP-glucose pyrophosphorylase of Pseudomonas aeruginosa (galU), residues 1-279, point mutant of Strep-PaUGP; Same construct as m1; source: E. coli BL21(DE3), purified (Strep-Tactin Sepharose); not shown: Strep-tagII, N-terminal, kept) MIKKCLFPAAGYGTRFLPATKAMPKEMLPVVNKPLIQYAVEEALEAGLSEIGIVTGRGKRSLEDHFDISYELEFQIRNTDKEKYLVGIRRLIDECTFAYTRQVEMKGLGHAILTGRPLIGDEPFAVVLADDLCLNLEGDSVLKQMVKLYNQFRCSIVAIQEVPPEETNKYGVIAGEMIRDDIFRVNTMVEKPKPEEAPSNLAIIGRYILTPDIFDLIEQTEPGKGGEIQITDALMKQAQDGCVLAYKFKGKRFDCGSAEGYIEATNFCYENLYKTGKAH
Result block: 1.1

Query block: Lookup PaUGP Y70A (enzyme, UDP-glucose pyrophosphorylase of Pseudomonas aeruginosa (galU), residues 1-279, point mutant of Strep-PaUGP; Same construct as m1; source: E. coli BL21(DE3), purified (Strep-Tactin Sepharose); not shown: Strep-tagII, N-terminal, kept) MIKKCLFPAAGYGTRFLPATKAMPKEMLPVVNKPLIQYAVEEALEAGLSEIGIVTGRGKRSLEDHFDISAELEHQIRNTDKEKYLVGIRRLIDECTFAYTRQVEMKGLGHAILTGRPLIGDEPFAVVLADDLCLNLEGDSVLKQMVKLYNQFRCSIVAIQEVPPEETNKYGVIAGEMIRDDIFRVNTMVEKPKPEEAPSNLAIIGRYILTPDIFDLIEQTEPGKGGEIQITDALMKQAQDGCVLAYKFKGKRFDCGSAEGYIEATNFCYENLYKTGKAH
Result block: 1.3

Query block: How about this protein: PaUGP Y70F (enzyme, UDP-glucose pyrophosphorylase of Pseudomonas aeruginosa (galU), residues 1-279, point mutant of Strep-PaUGP; Same construct as m1; source: E. coli BL21(DE3), purified (Strep-Tactin Sepharose); not shown: Strep-tagII, N-terminal, kept) MIKKCLFPAAGYGTRFLPATKAMPKEMLPVVNKPLIQYAVEEALEAGLSEIGIVTGRGKRSLEDHFDISFELEHQIRNTDKEKYLVGIRRLIDECTFAYTRQVEMKGLGHAILTGRPLIGDEPFAVVLADDLCLNLEGDSVLKQMVKLYNQFRCSIVAIQEVPPEETNKYGVIAGEMIRDDIFRVNTMVEKPKPEEAPSNLAIIGRYILTPDIFDLIEQTEPGKGGEIQITDALMKQAQDGCVLAYKFKGKRFDCGSAEGYIEATNFCYENLYKTGKAH
Result block: 1.3

Query block: Request: PaUGP N32A (enzyme, UDP-glucose pyrophosphorylase of Pseudomonas aeruginosa (galU), residues 1-279, point mutant of Strep-PaUGP; Same construct as m1; source: E. coli BL21(DE3), purified (Strep-Tactin Sepharose); not shown: Strep-tagII, N-terminal, kept) MIKKCLFPAAGYGTRFLPATKAMPKEMLPVVAKPLIQYAVEEALEAGLSEIGIVTGRGKRSLEDHFDISYELEHQIRNTDKEKYLVGIRRLIDECTFAYTRQVEMKGLGHAILTGRPLIGDEPFAVVLADDLCLNLEGDSVLKQMVKLYNQFRCSIVAIQEVPPEETNKYGVIAGEMIRDDIFRVNTMVEKPKPEEAPSNLAIIGRYILTPDIFDLIEQTEPGKGGEIQITDALMKQAQDGCVLAYKFKGKRFDCGSAEGYIEATNFCYENLYKTGKAH
Result block: 1.1

Query block: Now give it for PaUGP N266A (enzyme, UDP-glucose pyrophosphorylase of Pseudomonas aeruginosa (galU), residues 1-279, point mutant of Strep-PaUGP; Same construct as m1; source: E. coli BL21(DE3), purified (Strep-Tactin Sepharose); not shown: Strep-tagII, N-terminal, kept) MIKKCLFPAAGYGTRFLPATKAMPKEMLPVVNKPLIQYAVEEALEAGLSEIGIVTGRGKRSLEDHFDISYELEHQIRNTDKEKYLVGIRRLIDECTFAYTRQVEMKGLGHAILTGRPLIGDEPFAVVLADDLCLNLEGDSVLKQMVKLYNQFRCSIVAIQEVPPEETNKYGVIAGEMIRDDIFRVNTMVEKPKPEEAPSNLAIIGRYILTPDIFDLIEQTEPGKGGEIQITDALMKQAQDGCVLAYKFKGKRFDCGSAEGYIEATAFCYENLYKTGKAH too.
Result block: 1.2

Query block: Also, PaUGP Q75A (enzyme, UDP-glucose pyrophosphorylase of Pseudomonas aeruginosa (galU), residues 1-279, point mutant of Strep-PaUGP; Same construct as m1; source: E. coli BL21(DE3), purified (Strep-Tactin Sepharose); not shown: Strep-tagII, N-terminal, kept) MIKKCLFPAAGYGTRFLPATKAMPKEMLPVVNKPLIQYAVEEALEAGLSEIGIVTGRGKRSLEDHFDISYELEHAIRNTDKEKYLVGIRRLIDECTFAYTRQVEMKGLGHAILTGRPLIGDEPFAVVLADDLCLNLEGDSVLKQMVKLYNQFRCSIVAIQEVPPEETNKYGVIAGEMIRDDIFRVNTMVEKPKPEEAPSNLAIIGRYILTPDIFDLIEQTEPGKGGEIQITDALMKQAQDGCVLAYKFKGKRFDCGSAEGYIEATNFCYENLYKTGKAH please.
Result block: 1.2
